# assayed.target: FP receptor (Homo sapiens)
# test.name: Antagonist Ca2+ assay: FP antagonists on PGF2α-stimulated Ca2+ transients in MYLA cells
# Format: cell-based
# Design: endogenous in cells; host or cells: MYLA cells (conditionally immortalised human myometrial cells; hTERT + temperature-sensitive SV40 large T)
# applied.conditions: in the presence of 1 µM PGF2α
// boundary case: HillSlope ± SD, effect on Fmax equal to -0.5 maps to Not satisfied; strictly smaller maps to Satisfied

Please review the following examples before continuing.
>>> label_class("CC(C)Cn1ncc2cc(Cl)cc(Cn3nc(N)c4cc(C(=O)O)ccc43)c21 [Compound 68]")
"Not satisfied"
>>> label_class("Cc1c(-c2ccccc2)nc2ccc(Br)cc2c1C(=O)NCC(CCC(=O)O)c1ccccc1Cl (centres unmarked) [Compound 39/40]")
"Satisfied"
>>> label_class("Cc1c(N2CCCC2)nc2ccc(Br)cc2c1C(=O)NCC(CCC(=O)O)c1ccccc1Cl (centres unmarked) [Compound 46/47]")
"Satisfied"

Now, please, on to the next compound.
**Q:** Quick check: does O=C(N[C@@H](CCO)c1ccc(F)cc1)[C@@H]1SCCN1S(=O)(=O)c1ccc(-c2ccccc2)cc1 [OBE002] have HillSlope ± SD, effect on Fmax under -0.5?
**A:** Not satisfied

====

# assayed.target: FP receptor (Homo sapiens, UniProt P43088)
# Sequence (P43088 whole entry): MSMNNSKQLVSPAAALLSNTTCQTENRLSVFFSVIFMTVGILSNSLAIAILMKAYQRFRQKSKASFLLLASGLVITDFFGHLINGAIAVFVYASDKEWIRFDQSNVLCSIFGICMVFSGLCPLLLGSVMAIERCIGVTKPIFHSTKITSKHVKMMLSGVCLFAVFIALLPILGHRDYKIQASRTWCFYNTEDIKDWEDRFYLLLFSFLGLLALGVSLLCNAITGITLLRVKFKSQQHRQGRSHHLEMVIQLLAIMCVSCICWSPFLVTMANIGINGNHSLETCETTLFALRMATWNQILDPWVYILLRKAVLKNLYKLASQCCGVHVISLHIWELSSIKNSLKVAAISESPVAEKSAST
# test.name: Antagonist Ca2+ assay: FP antagonists on PGF2α-stimulated Ca2+ transients in MYLA cells
# Assay type: cell-based
# Design: endogenous in cells; host or cells: MYLA cells (conditionally immortalised human myometrial cells; hTERT + temperature-sensitive SV40 large T)
# applied.conditions: in the presence of 1 µM PGF2α
In this section, each of the molecules is paired with its reported HillSlope ± SD, effect on AUC.
Response field accepts a number only; no unit should be typed.

Record excerpt, results attached:
>>> value_observed("CC(C)Cn1ncc2cc(Cl)cc(Cn3nc(N)c4cc(C(=O)O)ccc43)c21")
"−0.44"
>>> value_observed("Cc1c(N2CCCC2)nc2ccc(Br)cc2c1C(=O)NCC(CCC(=O)O)c1ccccc1Cl (stereo not shown)")
"−1.37"
>>> value_observed("Cc1c(-c2ccccc2)nc2ccc(Br)cc2c1C(=O)NCC(CCC(=O)O)c1ccccc1Cl (stereo not shown)")
"−0.98"

# input for lookup
**Q:** Sample O=C(N[C@@H](CCO)c1ccc(F)cc1)[C@@H]1SCCN1S(=O)(=O)c1ccc(-c2ccccc2)cc1 — what was its HillSlope ± SD, effect on AUC?
**A:** −0.41

====

# assayed.target: FP receptor (Homo sapiens, UniProt P43088)
# test.name: Antagonist Ca2+ assay: FP antagonists on PGF2α-stimulated Ca2+ transients in MYLA cells
# Type: cell-based
# Design: endogenous in cells; host or cells: MYLA cells (conditionally immortalised human myometrial cells; hTERT + temperature-sensitive SV40 large T)
# applied.conditions: 300 pM–10 µM antagonist in the presence of 1 µM PGF2α, N = 3, read-out: IC50, effect on AUC
Readings of pIC50 for the listed compounds
As a rule, pIC50 stands for the negative log10 of the concentration, concentration in M.

Guide cases for pIC50, answers given:
>>> value_observed("O=C(N[C@@H](CCO)c1ccc(F)cc1)[C@@H]1SCCN1S(=O)(=O)c1ccc(-c2ccccc2)cc1")
6.75
>>> value_observed("O=C(N[C@H](c1ccc(F)cc1)[C@H]1CCS(=O)(=O)C1)[C@@H]1CCN1S(=O)(=O)c1ccc(-c2cccnc2)cc1")
7.30
>>> value_observed("CC(C)Cn1ncc2cc(Cl)cc(Cn3nc(N)c4cc(C(=O)O)ccc43)c21")
6.76

Continue with the next compound.
**Q:** I have this compound here, Cc1c(-c2ccccc2)nc2ccc(Br)cc2c1C(=O)NCC(CCC(=O)O)c1ccccc1Cl (stereo not shown) , and I need its recorded pIC50.
**A:** 7.05
